Each entry below lists one item and its recorded IC50 value.
# system: G1 APOL1 (Homo sapiens, UniProt O14791, I384M/S342G)
# Construct: expressed in transfected cells
# experimentNotes: Acute APOL1 Thallium Assay with inducible stable clones of HEK 293 cells
# Type: cell-based
# conditionDescription: HEK 293 T-Rex inducible stable clone expressing G1 APOL1; read-out: Thallium Assay (IC50)
recordedMetric: IC50

[[record]]
molecule = "C[C@H](O)C(=O)NC[C@H]1C[C@H](c2c(-c3ccc(F)cc3)[nH]c3c(F)cc(F)cc32)C1 [Compound 207]"
readoutvalue = "0.25 to 1 µM"

[[record]]
molecule = "Nc1nonc1C(=O)NC[C@H]1C[C@H](c2c(-c3ccc(F)cc3)[nH]c3c(F)cc(F)cc32)C1 [Compound 329]"
readoutvalue = "> 1 µM"

[[record]]
molecule = "Cc1ccc(C(=O)NC2CC(Cc3c(-c4ccc(F)cc4)[nH]c4c(F)cc(F)cc34)C2)[nH]1 (stereo not shown) [Compound 172]"
readoutvalue = "> 1 µM"

[[record]]
molecule = "O=C(Cc1cnccn1)NC[C@H]1C[C@H](c2c(-c3ccc(F)cc3)[nH]c3c(F)cc(F)cc32)C1 [Compound 238]"
readoutvalue = "> 1 µM"

[[record]]
molecule = "O=S(=O)(N[C@H]1C[C@H](c2c(-c3ccc(F)cc3)[nH]c3c(F)cc(F)cc32)C1)c1n[nH]c2ncccc12 [Compound 154]"
readoutvalue = "> 1 µM"

[[record]]
molecule = "O=S(=O)(NCCc1cn[nH]c1)NC[C@H]1C[C@H](c2c(-c3ccc(F)cc3)[nH]c3c(F)cc(F)cc32)C1 [Compound 369]"
readoutvalue = "0.25 to 1 µM"

[[record]]
molecule = "CCS(=O)(=O)N[C@H]1C[C@H](c2c(-c3ccc(F)cc3)[nH]c3c(F)cc(F)cc32)C1 [Compound 147]"
readoutvalue = "< 0.25 µM"


* * *

Each entry below lists one item and its recorded IC50 value.
# system: G1 APOL1 (Homo sapiens, UniProt O14791, I384M/S342G)
# Construct: expressed in transfected cells
# Sequence (O14791 28-398 S342G/I384M): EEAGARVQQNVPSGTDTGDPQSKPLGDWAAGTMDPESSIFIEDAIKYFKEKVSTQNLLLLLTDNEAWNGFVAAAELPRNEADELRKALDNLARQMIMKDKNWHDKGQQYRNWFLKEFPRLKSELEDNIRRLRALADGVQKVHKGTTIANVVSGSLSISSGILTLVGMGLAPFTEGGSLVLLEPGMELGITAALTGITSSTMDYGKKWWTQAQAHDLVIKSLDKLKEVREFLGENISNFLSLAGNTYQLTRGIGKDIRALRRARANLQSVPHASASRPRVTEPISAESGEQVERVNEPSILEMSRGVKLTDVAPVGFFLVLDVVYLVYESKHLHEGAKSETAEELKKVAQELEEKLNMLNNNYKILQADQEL
# experimentNotes: Acute APOL1 Thallium Assay with inducible stable clones of HEK 293 cells
# Type: cell-based
# conditionDescription: HEK 293 T-Rex inducible stable clone expressing G1 APOL1; read-out: Thallium Assay (IC50)
recordedMetric: IC50

[[record]]
molecule = "CC(C)(C)OC(=O)N1CC[C@H](O)[C@H]1C(=O)NC[C@H]1C[C@H](c2c(-c3ccc(F)cc3)[nH]c3c(F)cc(F)cc32)C1"
recordedmetric = "IC50"
readoutvalue = "> 1000 nM"

[[record]]
molecule = "O=C1CC(C(=O)NC[C@H]2C[C@H](c3c(-c4ccc(F)cc4)[nH]c4c(F)cc(F)cc43)C2)CN1 (stereo partly drawn)"
recordedmetric = "IC50"
readoutvalue = "> 1000 nM"

[[record]]
molecule = "NC(C(=O)NC[C@H]1C[C@H](c2c(-c3ccc(F)cc3)[nH]c3c(F)cc(F)cc32)C1)C(F)(F)F (stereo partly drawn)"
recordedmetric = "IC50"
readoutvalue = "> 1000 nM"


These entries and their values trace back to patent US12281102B2.
